Experiment notes: qHTS for Inhibitors of the Functional Ribonucleoprotein Complex (vRNP) of Lassa (LASV) Arenavirus: LASV Primary Screen - GLuc reporter signal (AID 1347082); further: nearly all actives have a fitted effect of over 60% in size
Particulars: LASV minigenome vRNP, Gaussia luciferase reporter; series mostly up to 57.5 µM
Results filed as inconclusive are left out. Calls of active or inactive are those of the source. The call rests on the fitted dose curve; tested in HEK293 reporter line.
Can you answer with just one of these options? 1 (active), -1 (inactive)

// return assay outcome for `CC(=O)c1ccccn1`
-1

// return assay outcome for CC(C)(O)C1CC[C@@]2(C)C3CCC4[C@@]5(C)CCCC(C)(C)C5C(O)C[C@]4(C)[C@]3(C)CC[C@@H]12 (stereo not given in full)
-1

// return assay outcome for O=C(O)CCC(=O)N1CCCC1C(=O)O (stereo not given)
-1

* * *

Experiment notes: qHTS for Inhibitors of the Functional Ribonucleoprotein Complex (vRNP) of Lymphocytic Choriomeningitis Arenaviruses (LCMV): Viability assay - alamar blue signal for LCMV Primary Screen (AID 1347085); further: nearly all actives have a fitted effect of over 80% in size
Particulars: alamar blue viability counter-screen, LCMV vRNP screen cells; series mostly up to 57.5 µM
Results filed as inconclusive are left out. Active and inactive are the calls of the source. The call rests on the fitted dose curve; tested in HEK293 reporter line.
Can you answer with just one of these options? Yes = active, No = inactive

INSERT INTO measurements (mol, label_value) VALUES
  ('C=C1C(=O)O[C@@H]2C[C@@H](C)[C@@H]3C=CC(=O)[C@@]3(C)[C@@H](OC(C)=O)[C@H]12', 'Yes'),
  ('CCC(CC)[C@H](NC(C)=O)[C@@H]1[C@H](O)[C@@H](C(=O)O)C[C@@H]1N=C(N)N', 'No'),
  ('N=C(N)SCCc1ccc(CCSC(=N)N)cc1', 'No');

// return assay outcome for `COc1cc(-c2oc3cc(O)cc(O)c3c(=O)c2O[C@@H]2O[C@H](CO)[C@@H](O)[C@H](O)[C@H]2O)cc(OC)c1O`
No

// return assay outcome for `O=C(O)C=Cc1ccc(Cn2ccnc2)cc1`
No

// return assay outcome for `Nc1nc(N)c(N=O)c(OCC2CCCCC2)n1`
Yes

// return assay outcome for `Cc1ccccc1C(=O)c1ccc(Nc2ccc(Br)cc2N)cc1Cl`
No

// return assay outcome for `O=C(O)c1cc([N+](=O)[O-])ccc1NCCCc1ccccc1`
No

// return assay outcome for `CC(=O)OC[C@@]12C(=O)[C@@H](O)[C@@H](C)[C@]3(C[C@@H](c4ccoc4)O[C@@H]3OC(C)=O)[C@H]1CCC[C@]21CO1`
No

// return assay outcome for `CN(C)C(=O)[C@H](O)[C@H](Cc1ccccc1)NC(=O)c1cc2cc(Cl)ccc2[nH]1`
No

* * *

System: Tov112D
Experiment notes: Primary qHTS to identify gynecologic anti-cancer compounds using libraries of approved drugs and bioactive compounds (AID 1345084); further: nearly all actives have a fitted effect of over 55% in size
Particulars: Gynecologic cancer cell panel viability, ATPlite luminescence, 48 h; series mostly up to 57.5 µM
Results filed as inconclusive are left out. Active and inactive are the calls of the source. Calls follow the shape of the dose curve; as a rule, active = well fitted cell-killing curve with a large enough effect; inconclusive = small, poorly fitted or top-dose-only effect, or effect the other way; inactive = flat fitted curve, though single readings scatter.
Can you answer with just one of these options? YES = active, NO = inactive

Look over these answered cases.
INSERT INTO measurements (molecule, label_value) VALUES
  ('Cc1c(Cl)c(OCC(=O)N2CCN(C)CC2)nc2sc(C(=O)NC3CC3)c(N)c12', 'NO'),
  ('CC(O)(c1ccccc1)C(Cc1ccc(Cl)cc1)n1cncn1 (stereo not drawn)', 'NO'),
  ('C[C@H]1C/C=C/[C@H]2[C@@H]3O[C@]3(C)[C@@H](C)[C@H]3[C@H](Cc4ccccc4)NC(=O)[C@]32OC(=O)O/C=C/[C@@](C)(O)C1=O', 'YES'),
  ('NC(=O)[C@@H](CC1CC1)[C@@H](CCC(F)(F)F)C(=O)N[C@H]1N=C(c2ccccc2)c2cccc(F)c2NC1=O', 'NO'),
  ('CN1CN(c2ccccc2)C2(CCN(CCCC(=O)c3ccc(F)cc3)CC2)C1=O', 'NO');

// return assay outcome for `CN=C(NS(=O)(=O)c1ccc(Cl)cc1)N1C[C@H](c2ccccc2)C(c2ccc(Cl)cc2)=N1`
NO

// return assay outcome for `C[C@]12CC[C@@H](O)C[C@@H]1CC[C@@H]1[C@@H]2CC[C@]2(C)C(=O)[C@@H](Br)C[C@@H]12`
NO

// return assay outcome for `CN1C[C@@H]2CN(c3ccc(-c4ccccc4)nn3)C[C@@H]2C1`
NO

// return assay outcome for C[C@@H]1O[C@@H](O[C@H]2CC[C@@]3(C)C(CC[C@@H]4C3CC[C@]3(C)[C@@H](C5=CC(=O)OC5)CC[C@]43O)C2)[C@H](O)[C@H](O)[C@H]1O (stereo partly drawn)
YES

// return assay outcome for COC1CC(OC2CCC3(C=O)C(CCC4C3CCC3(C)C(C5=CC(=O)OC5)CCC43O)C2)OC(C)C1O (stereo not drawn)
YES

// return assay outcome for C/C=C(\C)C(=O)O[C@@H]1[C@@H](C)[C@]2(O)C3C=C(C)C(=O)[C@@]3(O)CC(CO)=C[C@H]2C2C(C)(C)[C@@]21OC(=O)C(C)CC (stereo partly drawn)
NO

// return assay outcome for `C[C@H](Nc1ncnc2nc[nH]c12)c1nc2ccc(F)cc2c(=O)n1-c1ccccc1`
NO

// return assay outcome for `C[C@@H]1CCC/C=C/[C@H]2C[C@@H](O)C[C@@H]2[C@@H](O)/C=C/C(=O)O1`
YES

// return assay outcome for CCC(C)(O)C1(C(=O)O)COC(=O)C1 (stereo not drawn)
NO

// return assay outcome for `C#C[C@]1(O)CC[C@H]2[C@@H]3CC[C@H]4Cc5nc6nc7ccccc7n6cc5C[C@]4(C)[C@H]3CC[C@@]21C`
NO

// return assay outcome for `COc1ccsc1CNCC[C@@]1(c2ccccn2)CCOC2(CCCC2)C1`
NO

// return assay outcome for C[C@H]1O[C@@H](O[C@H]2CC[C@]3(C=O)C4CC[C@]5(C)[C@@H](C6=CC(=O)OC6)CC[C@]5(O)[C@@H]4CC[C@]3(O)C2)C[C@@H](O)[C@@H]1O (stereo partly drawn)
YES

// return assay outcome for `CC(C)[C@H]1OC(=O)[C@H](Cc2ccccc2)N(C)C(=O)[C@@H](C(C)C)OC(=O)[C@H](Cc2ccccc2)N(C)C(=O)[C@@H](C(C)C)OC(=O)[C@H](Cc2ccccc2)N(C)C1=O`
NO

// return assay outcome for `CN1C(=O)CN=C(c2ccccc2Cl)c2cc(Cl)ccc21`
NO

* * *

Experiment notes: qHTS for Inhibitors of the Functional Ribonucleoprotein Complex (vRNP) of Lymphocytic Choriomeningitis Arenaviruses (LCMV): Viability assay - alamar blue signal for LCMV Primary Screen (AID 1347085); further: nearly all actives have a fitted effect of over 80% in size
Particulars: alamar blue viability counter-screen, LCMV vRNP screen cells; series mostly up to 57.5 µM
Inconclusive results are not listed. The source made the active and inactive calls. Calls come from the whole dose curve; tested in HEK293 reporter line.
Can you answer with just one of these options? 1 (yes) (active), 0 (no) (inactive)

INSERT INTO results (molecule, label_value) VALUES
  ('O=C1CC(c2ccc(O[C@@H]3OC(CO)[C@@H](O)C(O)C3O)cc2)Oc2cc(O)ccc21 (stereo partly specified)', '0 (no)'),
  ('CCCCCCCCCCCCCC[C@@H](O)[C@@H](O)[C@@H](N)CO', '0 (no)'),
  ('CN1C2CCC1CC(OC(=O)C(O)c1ccccc1)C2 (stereo unspecified)', '0 (no)');

// return assay outcome for `O=C(CO)c1c[nH]c2ccccc12`
0 (no)

// return assay outcome for `COc1cc2nc(-c3cc(F)ccc3O)nc(N[C@@H]3CNC[C@@H]3C(C)(C)O)c2cc1OC`
1 (yes)

// return assay outcome for `CCn1c(C(=O)N(C2CC2)C2CC2)cc2c3c(ncn3C)c(Nc3cc(C)n(C)n3)nc21`
0 (no)

// return assay outcome for CC(C)CCCC(C)CCO (stereo unspecified)
0 (no)

* * *

Experiment notes: qHTS for Inhibitors of the Functional Ribonucleoprotein Complex (vRNP) of Lassa (LASV) Arenavirus: LASV Primary Screen - GLuc reporter signal (AID 1347082); further: nearly all actives have a fitted effect of over 60% in size; further: potency means the concentration at half of the fitted maximal effect
Particulars: LASV minigenome vRNP, Gaussia luciferase reporter; series mostly up to 57.5 µM
Records with an inconclusive call do not appear. Activity calls are given as the source filed them. The call rests on the fitted dose curve; tested in HEK293 reporter line.
Property: Potency

Please review the following examples before continuing.
INSERT INTO measurements (compound, result) VALUES
  ('C[C@@H]1C[C@@H]2OC(=O)[C@]3(C)[C@H]2[C@@H](OC3(C)O)[C@]2(C)C(=O)C=C[C@H]12 (stereo partly specified)', 'inactive'),
  ('CCOC(=O)[C@H]1O[C@H]1C(=O)N[C@@H](CC(C)C)C(=O)NCCC(C)C', 'inactive'),
  ('COc1ccc(CNC(=S)NCc2ccc(OC)cc2)cc1', 'inactive'),
  ('CCN(CC)CCCC(C)Nc1nc(C)cc(Nc2ccc3nc(C)cc(N)c3c2)n1 (stereo unspecified)', 'inactive'),
  ('CC1=CC[C@H](CC=O)C1(C)C', 'inactive'),
  ('CC(C)n1nc(-c2ccc3oc(N)nc3c2)c2c(N)ncnc21', '2.4 nM (active)'),
  ('COC(/C=C(\C)CCC=C(C)C)OC', 'inactive'),
  ('CC1=CC(=O)CCC1', 'inactive');

Quick one: Potency of `N[C@H](C(=O)O)c1cc(O)cc(O)c1` ?
inactive

Quick one: Potency of `CCc1cnn2c(NCc3ccc[n+]([O-])c3)cc(N3CCCC[C@@H]3CCO)nc12` ?
109 nM (active)

Quick one: Potency of `N[C@H](C(=O)O)[C@H]1C[C@@H]1C(=O)O` ?
inactive

The values you see were collected from PubChem BioAssay (NCATS).
